Tested on: Candida albicans
experiment-notes: In vitro anti-fungal activity: minimum inhibitory concentration (m.i.c.) on agar plates
Format: cell-based
assay-setup: geometrical mean of results against a panel of 12 strains of Candida albicans; agar plates incubated for 48 hours at 37°C
Reported Mean m.i.c. is given for each of the following molecules.
Please give the numeric answer without any surrounding text.

Some solved cases for reference:
> print(dat)
                                   molecule  target.under.test  measured.value
1  OC(CC1CC1)(Cn1ccnc1)c1ccc(Cl)cc1Cl (stereo not shown)   Candida albicans             6.3
2  CCCCC(O)(Cn1ccnc1)c1ccccc1Cl (stereo not shown)   Candida albicans            18.0
3  CC(C)(C)C(O)(Cn1ccnc1)c1ccc(Cl)cc1Cl (stereo not shown)   Candida albicans            11.0
4  CCCCCCCC(O)(Cn1ccnc1)c1ccc(Cl)cc1Cl (stereo not shown)   Candida albicans             5.6
5  CCC(O)(Cn1ccnc1)c1ccc(Cl)cc1Cl (stereo not shown)   Candida albicans            21.0

Give Mean m.i.c. for the following molecule: C=CC(C)C(O)(Cn1ccnc1)c1ccc(Cl)cc1Cl (single isomer, unassigned) [Example 3b]
11.0

Give the reported value of Mean m.i.c. for this record: CCCC(O)(Cn1ccnc1)c1ccc(Cl)cc1Cl (stereo not shown)
12.5

Please give the documented Mean m.i.c. of C=CCC(O)(Cn1ccnc1)c1ccc(Cl)cc1Cl (stereo not shown)
22.0

Read the entry CC(C)CCC(O)(Cn1ccnc1)c1ccc(Cl)cc1Cl (stereo not shown) and write its reported Mean m.i.c..
3.8

Retrieve Mean m.i.c. measured for CCCCCCC(O)(Cn1ccnc1)c1ccc(Cl)cc1Cl (stereo not shown) and print it.
3.1

Give a short answer stating reported Mean m.i.c. for CCC(C)C(O)(Cn1ccnc1)c1ccc(Cl)cc1Cl (stereo not shown) .
12.0

State its Mean m.i.c. for this molecule: C=CC(C)C(O)(Cn1ccnc1)c1ccc(Cl)cc1Cl (single isomer, unassigned) [Example 3a]
18.0

Report measured Mean m.i.c.; entry is CCCCCC(O)(Cn1ccnc1)c1ccc(Cl)cc1Cl (stereo not shown)
5.2

For the molecule CCCCC(O)(Cn1ccnc1)c1ccc(Cl)cc1Cl (stereo not shown) , report Mean m.i.c..
3.8

Supply Mean m.i.c. value. Item: CCCCC(O)(Cn1ccnc1)c1ccc(Cl)cc1 (stereo not shown)
38.0

For the molecule C=CCCC(O)(Cn1ccnc1)c1ccc(Cl)cc1Cl (stereo not shown) , give its measured Mean m.i.c. value.
6.8

Specify Mean m.i.c. for CC(C)CC(O)(Cn1ccnc1)c1ccc(Cl)cc1Cl (stereo not shown) and stop.
5.6

Fill in Mean m.i.c. for record CC(C)C(O)(Cn1ccnc1)c1ccc(Cl)cc1Cl (stereo not shown)
21.0

Specify reported Mean m.i.c. for the molecule shown: C=CCCCC(O)(Cn1ccnc1)c1ccc(Cl)cc1Cl (stereo not shown)
8.4
